The reported measurements were obtained from patent US11141403B2.

System: MRSA COL (MB5393)
METHOD DESCRIPTION: TarO Inhibitor/β-Lactam Synergy Assay
Type: cell-based, Staphylococcus aureus
PARTICULARS: Staphylococcus aureus, TarO inhibitor alone, 20 hours, OD600, 95% growth inhibition, read-out: MITC95 TarO inhibitor alone, Bacteria: SA_MB5393
REPORTED ENDPOINT: IC95

Solved cases (6 shown):
• CCN(C(=O)CCn1c2cc(CN3CC(F)(F)C3)ccc2nc1[C@H]1CC[C@H](CC)CC1)C1CCCCC1 = > 200 µM
• CCN(C(=O)CCn1c(N2CCC[C@H](NC(=O)OC(C)(C)C)C2)nc2ccccc21)C1CCCCC1 = > 200 µM
• CCN(C(=O)CCn1c2cccc(C[C@H]3CCOC3)c2nc1[C@H]1CC[C@H](CC)CC1)C1CCCCC1 = > 200 µM
• CCN(C(=O)CCn1c2c(F)cccc2nc1[C@H]1CC[C@H](CC)CC1)C1CCCCC1 = > 200 µM
• CC(C)(C)OC(=O)N1CCC(c2nc3ccccc3n2CCC(=O)NC2C[C@H]3CC[C@]2(C)C3(C)C)C1 (stereo partly shown) = > 200 µM
• CCN(C(=O)CCn1c(CN2CCC(C(C)(C)C)CC2)nc2ccccc21)C1CCCCC1 = > 200 µM

Exam item: Please look up its IC95: CC(C)(C)OC(=O)NCC1CCC(c2nc3ccccc3n2CCC(=O)NC2C[C@H]3CC[C@]2(C)C3(C)C)CC1 (stereo partly shown)
Marked response: > 200 µM

Exam item: Please look up its IC95: CCN(C(=O)CCn1c(C2CCCN(c3nccc(C)n3)C2)nc2ccccc21)C1CCCCC1 (stereo not shown)
Marked response: 100 µM

Exam item: Please look up its IC95: CCN(C(=O)CCn1c2cc(C[C@H]3CCOC3)ccc2nc1[C@H]1CC[C@H](CC)CC1)C1CCCCC1
Marked response: > 200 µM

Exam item: Please look up its IC95: CCN(C(=O)CCn1c2ccc(OC)cc2nc1[C@H]1CC[C@H](CC)CC1)C1CCCCC1
Marked response: > 200 µM

Exam item: Please look up its IC95: CCN(C(=O)CCn1c(C2CCC(C)N(c3cccc(OC)n3)C2)nc2ccccc21)C1CCCCC1 (stereo not shown)
Marked response: 100 µM

Exam item: Please look up its IC95: CN(C(=O)CCn1c(C2CCCCC2)nc2ccccc21)C1CCCCC1
Marked response: > 200 µM

Exam item: Please look up its IC95: CCN(C(=O)CCn1c2ccc(F)cc2nc1[C@H]1CC[C@H](CC)CC1)C1CCCCC1
Marked response: > 200 µM

Exam item: Please look up its IC95: CC1(C)[C@@H]2CC[C@@]1(C)[C@H](NC(=O)CCn1c3ccccc3nc1[C@H]1CC[C@@H](C(C)(C)C)CC1)C2
Marked response: > 200 µM

Exam item: Please look up its IC95: CCN(C(=O)CCn1c(C2CCN(C(=O)OC(C)(C)C)C2)nc2cc(F)ccc21)C1CCCCC1 (stereo not shown)
Marked response: > 200 µM

Exam item: Please look up its IC95: CCN(C(=O)CCn1c2cc(CN)ccc2nc1[C@H]1CC[C@H](CC)CC1)C1CCCCC1
Marked response: > 200 µM

Exam item: Please look up its IC95: CCN(C(=O)CCn1c(C2CCC(C)N(c3nccc(OC)n3)C2)nc2ccccc21)C1CCCCC1 (stereo not shown)
Marked response: 100 µM

Exam item: Please look up its IC95: CCN(C(=O)CCn1c2ccncc2nc1[C@H]1CC[C@H](CC)CC1)C1CCCCC1
Marked response: > 200 µM

Exam item: Please look up its IC95: CC1(C)[C@@H]2CC[C@@]1(C)[C@H](NC(=O)CCn1c(C3CCCCC3)nc3ccccc31)C2
Marked response: > 200 µM
